Taken from PubChem BioAssay.

# target under test: Fibroblast growth factor 10 (Homo sapiens) (UniProt O15520)
# Sequence (O15520 whole entry, looked up): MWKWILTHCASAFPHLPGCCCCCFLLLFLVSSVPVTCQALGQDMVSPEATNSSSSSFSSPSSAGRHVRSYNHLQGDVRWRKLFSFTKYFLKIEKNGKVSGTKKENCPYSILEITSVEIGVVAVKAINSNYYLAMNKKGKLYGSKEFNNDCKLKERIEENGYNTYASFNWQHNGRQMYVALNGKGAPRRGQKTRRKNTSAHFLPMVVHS
# protocol description: FGF10 binders on small-molecule microarrays, primary screen, biochemical, small-molecule microarray, 635 nm fluorescence (AID 1102)
# test parameters: FGF10 binding, fluorescence 635 nm, higher = more signal
Please mark 1 if the recorded composite z-score is equal to or greater than 1, and 0 if it falls below.

[
  {
    "molecule": "COCCOC(=O)N1C(=O)[C@@]2(c3ccccc31)[C@H](c1ccccc1OCCO)N1[C@H](c3ccccc3)[C@H](c3ccccc3)OC(=O)[C@H]1[C@@H]2C(N)=O",
    "discrete label": 1
  },
  {
    "molecule": "CC(C)(C)OC(=O)CC[C@]12N=C(c3ccc(OCCCO)cc3)O[C@H]1c1ccccc1N(Cc1ccccc1)C2=O",
    "discrete label": 1
  },
  {
    "molecule": "COCCOC(=O)N1C(=O)[C@@]2(c3cc(C#CCC(C(=O)OC)C(=O)OC)ccc31)[C@H](c1ccc(O)cc1)N1[C@H](c3ccccc3)[C@H](c3ccccc3)OC(=O)[C@H]1[C@@H]2C(=O)NC[C@H](O)c1ccccc1",
    "discrete label": 0
  },
  {
    "molecule": "COCCOC(=O)N1C(=O)[C@@]2(c3cc(C#CCNC(N)=O)ccc31)[C@H](c1ccc(OCCO)cc1)N1[C@H](c3ccccc3)[C@H](c3ccccc3)OC(=O)[C@H]1[C@@H]2C(N)=O",
    "discrete label": 0
  },
  {
    "molecule": "Cc1ccc(F)cc1S(=O)(=O)N[C@@H]1CCN(Cc2cccc3[nH]ccc23)C1",
    "discrete label": 0
  },
  {
    "molecule": "CC1(C)C(=O)C(c2ccccc2)=C2CN3C(=O)N(CCc4ccccc4)C(=O)C3(Cc3ccc(C(F)(F)F)cc3)C=C21 (stereo unspecified)",
    "discrete label": 0
  }
]

* * *

# protocol description: RPMI8226 myeloma cell viability, profiling panel, resazurin fluorescence, basal, 24 h, PK04 Diversity Set (AID 1180);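 also: RPMI8826 multiple myeloma cell line at 5000 cells per well; test concentration not given here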
# test parameters: higher = more signal
# key: entry, value: z-score
measured metric: z-score

[
  {
    "structure smiles string": "COc1cc2c(cc1OC)CN(C(=O)[C@@H]1[C@H]3C(=O)O[C@H](c4ccccc4)[C@H](c4ccccc4)N3[C@H](c3ccc(O)cc3)[C@@]13C(=O)Nc1ccc(C#CCCO)cc13)CC2",
    "measured": -0.657
  },
  {
    "structure smiles string": "C=CCN1C(=O)[C@]2(O[C@H](CCO)[C@@H]([Si](C)(C)c3ccc(OC)cc3)[C@@H]2C)c2cc(NC(=O)c3ccc(OC)cc3)ccc21",
    "measured": -6.22
  },
  {
    "structure smiles string": "CC(C)C(=C=CC[C@@H](O)c1cccc(OCCO)c1)C[C@@H](O)COCc1ccccc1",
    "measured": 0.47
  },
  {
    "structure smiles string": "CN(C)CCCNC(=O)[C@@H]1c2ccccc2C(=O)N(C2CCCCC2)[C@H]1c1ccc(CO)cc1",
    "measured": 0.988
  },
  {
    "structure smiles string": "CCOC(=O)C[C@H]1[C@H](OC(=O)c2ccccc2-c2ccccc2)[C@@H](NC(=O)c2ccc3ccccc3n2)c2cc(OCCCO)ccc2N1C(=O)c1ccccc1",
    "measured": 0.303
  },
  {
    "structure smiles string": "O=C1C[C@@](C(=O)NCC(F)(F)F)(c2ccc([N+](=O)[O-])cc2)[C@@H](c2ccc(CO)cc2)N1CC12CC3CC(CC(C3)C1)C2",
    "measured": -2.92
  },
  {
    "structure smiles string": "C=C(COC)C(=O)CC[C@@H](OC(=O)c1cccnc1)c1ccccc1OCCO",
    "measured": -3.63
  }
]
